Target: T1, human G-CSF receptor (human, UniProt Q99062 25-836)
T1 sequence (looked up): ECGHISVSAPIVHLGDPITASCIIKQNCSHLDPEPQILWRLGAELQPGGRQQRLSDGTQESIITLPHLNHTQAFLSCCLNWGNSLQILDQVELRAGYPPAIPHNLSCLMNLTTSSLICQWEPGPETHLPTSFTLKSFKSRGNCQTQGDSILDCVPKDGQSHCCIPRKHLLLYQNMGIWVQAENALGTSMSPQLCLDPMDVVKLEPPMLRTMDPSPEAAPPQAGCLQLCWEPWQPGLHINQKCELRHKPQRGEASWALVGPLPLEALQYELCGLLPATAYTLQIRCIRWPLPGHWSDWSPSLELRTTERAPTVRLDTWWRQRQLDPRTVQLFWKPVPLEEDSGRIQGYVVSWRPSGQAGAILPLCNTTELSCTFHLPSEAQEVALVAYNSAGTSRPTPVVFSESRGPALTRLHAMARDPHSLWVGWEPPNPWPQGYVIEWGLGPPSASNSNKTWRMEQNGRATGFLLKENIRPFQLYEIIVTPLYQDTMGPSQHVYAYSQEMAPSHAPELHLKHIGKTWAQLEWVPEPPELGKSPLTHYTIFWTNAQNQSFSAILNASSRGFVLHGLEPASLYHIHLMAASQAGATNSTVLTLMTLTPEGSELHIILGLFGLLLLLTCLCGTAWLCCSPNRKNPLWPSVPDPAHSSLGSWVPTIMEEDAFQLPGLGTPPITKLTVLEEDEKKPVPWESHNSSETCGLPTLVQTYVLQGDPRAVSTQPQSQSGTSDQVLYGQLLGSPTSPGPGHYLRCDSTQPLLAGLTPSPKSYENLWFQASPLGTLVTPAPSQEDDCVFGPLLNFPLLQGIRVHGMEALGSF
Assay: cell-based or functional assay

{"Binder": "G-CSF with N-terminal Histidine tag, non-conjugated (ligand) MKHQHQHQHQHQHQQTPLGPASSLPQSFLLKCLEQVRKIQGDGAALQEKLCATYKLCHPEELVLLGHSLGIPWAPLSSCPSQALQLAGCLSQLHSGLFLYQGLLQALEGISPELGPTLDTLQLDVADFATTIWQQMEELGMAPALQPTQGAMPAFASAFQRRAGGVLVASHLQSFLEVSYRVLRHLAQP", "EC50 (% of hG-CSF) non-conjugated": "10 % of hG-CSF"}
{"Binder": "G-CSF variant K16/34/40R S53K, non-conjugated (ligand) TPLGPASSLPQSFLLRCLEQVRKIQGDGAALQERLCATYRLCHPEELVLLGHKLGIPWAPLSSCPSQALQLAGCLSQLHSGLFLYQGLLQALEGISPELGPTLDTLQLDVADFATTIWQQMEELGMAPALQPTQGAMPAFASAFQRRAGGVLVASHLQSFLEVSYRVLRHLAQP", "EC50 (% of hG-CSF) non-conjugated": "5 % of hG-CSF"}
{"Binder": "G-CSF variant K16/34/40R S142K, non-conjugated (ligand) TPLGPASSLPQSFLLRCLEQVRKIQGDGAALQERLCATYRLCHPEELVLLGHSLGIPWAPLSSCPSQALQLAGCLSQLHSGLFLYQGLLQALEGISPELGPTLDTLQLDVADFATTIWQQMEELGMAPALQPTQGAMPAFAKAFQRRAGGVLVASHLQSFLEVSYRVLRHLAQP", "EC50 (% of hG-CSF) non-conjugated": "20 % of hG-CSF"}
{"Binder": "G-CSF variant K16/34/40R T105K, non-conjugated (ligand) TPLGPASSLPQSFLLRCLEQVRKIQGDGAALQERLCATYRLCHPEELVLLGHSLGIPWAPLSSCPSQALQLAGCLSQLHSGLFLYQGLLQALEGISPELGPTLDKLQLDVADFATTIWQQMEELGMAPALQPTQGAMPAFASAFQRRAGGVLVASHLQSFLEVSYRVLRHLAQP", "EC50 (% of hG-CSF) non-conjugated": "30 % of hG-CSF"}
{"Binder": "G-CSF variant K16/34/40R Q70K Q90K Q120K, non-conjugated (ligand) TPLGPASSLPQSFLLRCLEQVRKIQGDGAALQERLCATYRLCHPEELVLLGHSLGIPWAPLSSCPSQALKLAGCLSQLHSGLFLYQGLLKALEGISPELGPTLDTLQLDVADFATTIWQKMEELGMAPALQPTQGAMPAFASAFQRRAGGVLVASHLQSFLEVSYRVLRHLAQP", "EC50 (% of hG-CSF) non-conjugated": "20 % of hG-CSF"}
{"Binder": "G-CSF variant K16/34/40R S159K, non-conjugated (ligand) TPLGPASSLPQSFLLRCLEQVRKIQGDGAALQERLCATYRLCHPEELVLLGHSLGIPWAPLSSCPSQALQLAGCLSQLHSGLFLYQGLLQALEGISPELGPTLDTLQLDVADFATTIWQQMEELGMAPALQPTQGAMPAFASAFQRRAGGVLVASHLQKFLEVSYRVLRHLAQP", "EC50 (% of hG-CSF) non-conjugated": "20 % of hG-CSF"}
{"Binder": "G-CSF variant K16/34/40R Q134K, non-conjugated (ligand) TPLGPASSLPQSFLLRCLEQVRKIQGDGAALQERLCATYRLCHPEELVLLGHSLGIPWAPLSSCPSQALQLAGCLSQLHSGLFLYQGLLQALEGISPELGPTLDTLQLDVADFATTIWQQMEELGMAPALQPTKGAMPAFASAFQRRAGGVLVASHLQSFLEVSYRVLRHLAQP", "EC50 (% of hG-CSF) non-conjugated": "10 % of hG-CSF"}
{"Binder": "G-CSF variant K16/23/34/40R, non-conjugated (ligand) TPLGPASSLPQSFLLRCLEQVRRIQGDGAALQERLCATYRLCHPEELVLLGHSLGIPWAPLSSCPSQALQLAGCLSQLHSGLFLYQGLLQALEGISPELGPTLDTLQLDVADFATTIWQQMEELGMAPALQPTQGAMPAFASAFQRRAGGVLVASHLQSFLEVSYRVLRHLAQP", "EC50 (% of hG-CSF) non-conjugated": "20 % of hG-CSF"}
{"Binder": "G-CSF variant K16/23/34R, non-conjugated (ligand) TPLGPASSLPQSFLLRCLEQVRRIQGDGAALQERLCATYKLCHPEELVLLGHSLGIPWAPLSSCPSQALQLAGCLSQLHSGLFLYQGLLQALEGISPELGPTLDTLQLDVADFATTIWQQMEELGMAPALQPTQGAMPAFASAFQRRAGGVLVASHLQSFLEVSYRVLRHLAQP", "EC50 (% of hG-CSF) non-conjugated": "50 % of hG-CSF"}
{"Binder": "G-CSF without N-terminal Histidine tag, non-conjugated (ligand) TPLGPASSLPQSFLLKCLEQVRKIQGDGAALQEKLCATYKLCHPEELVLLGHSLGIPWAPLSSCPSQALQLAGCLSQLHSGLFLYQGLLQALEGISPELGPTLDTLQLDVADFATTIWQQMEELGMAPALQPTQGAMPAFASAFQRRAGGVLVASHLQSFLEVSYRVLRHLAQP", "EC50 (% of hG-CSF) non-conjugated": "100 % of hG-CSF"}
{"Binder": "G-CSF variant K16/34/40R Q90K Q120K T133K, non-conjugated (ligand) TPLGPASSLPQSFLLRCLEQVRKIQGDGAALQERLCATYRLCHPEELVLLGHSLGIPWAPLSSCPSQALQLAGCLSQLHSGLFLYQGLLKALEGISPELGPTLDTLQLDVADFATTIWQKMEELGMAPALQPKQGAMPAFASAFQRRAGGVLVASHLQSFLEVSYRVLRHLAQP", "EC50 (% of hG-CSF) non-conjugated": "15 % of hG-CSF"}
{"Binder": "G-CSF variant K16/34/40R Q90K T105K S159K, non-conjugated (ligand) TPLGPASSLPQSFLLRCLEQVRKIQGDGAALQERLCATYRLCHPEELVLLGHSLGIPWAPLSSCPSQALQLAGCLSQLHSGLFLYQGLLKALEGISPELGPTLDKLQLDVADFATTIWQQMEELGMAPALQPTQGAMPAFASAFQRRAGGVLVASHLQKFLEVSYRVLRHLAQP", "EC50 (% of hG-CSF) non-conjugated": "55 % of hG-CSF"}

Cited source for all entries: patent US20030118612A1
